This collection of values is drawn from paper PMC5540273.

Test system: CASK
Conditions: concentration: 1 μM, replicates: in singlicate; n = 1;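 also: KINOMEscan kinase panel screen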
Recorded %Inh determines the label; the label ranges are class 1 (below 1%), class 2 (1% to below 20%), class 3 (20% or more)

>>> group("CCS(=O)(=O)c1ccc(OC)c(Nc2ncc(-c3ccc(F)cc3)o2)c1.Cl [GW591947]")
"class 2"
>>> group("Nc1nccc2scc(-c3ccc4c(c3)CCN4C(=O)Cc3ccccc3)c12 [GSK2576924]")
"class 2"
>>> group("COc1cc(Nc2nccc(N3CCC(NC(=O)C(C)c4ccc(Cl)cc4)C3)n2)cc(OC)c1OC (centres unmarked) [GSK1379757]")
"class 1"
>>> group("Cl.c1ccc(Cn2cnc3cc(Nc4ncnc5ccccc45)ccc32)cc1 [GW272142]")
"class 3"
>>> group("Nc1n[nH]c2ncc(-c3ccccc3)cc12 [SB-517081]")
"class 3"
>>> group("Nc1n[nH]c2nnc(-c3ccccc3)c(-c3ccccc3)c12 [GW554060]")
"class 3"
>>> group("COC(=O)c1c(-c2ccccc2)c2cc(Br)ccc2c(=O)n1Cc1ccc(S(C)(=O)=O)cc1")
"class 1"
>>> group("CCn1c(-c2nonc2N)nc2ccccc21 [SB-693162/GW549034]")
"class 1"
>>> group("Cc1ccc(Oc2ccc(Nc3ncnc4cc[nH]c34)cc2C)cn1")
"class 1"
>>> group("Cc1ccc(-c2ccc3c(ccc4sc5c(c43)NC[C@@H](C)N=C5N(C)C)n2)cn1")
"class 2"
>>> group("CCn1c(-c2ccoc2)nc2cnccc21 [SB-733887]")
"class 2"
>>> group("CCC(=O)c1c(-c2ccccc2)c2cc(Cl)ccc2c(=O)n1Cc1cc(S(C)(=O)=O)n(CC(F)F)n1")
"class 2"

---

Tested on: DAPK3
Details: concentration: 1 μM, replicates: in singlicate; n = 1
measurement.name: %Inh (%)

>>> measured_value("COc1cc2ncn(-c3cc(OCc4ccc(S(C)(=O)=O)cc4)c(C(N)=O)s3)c2cc1OC")
9
>>> measured_value("CCc1nc(-c2cccc(C)c2)c(-c2ccncc2)s1")
9
>>> measured_value("CCn1c(-c2ccoc2)nc2cnccc21")
14
>>> measured_value("O=c1cc(N2CCOCC2)nc2n(Cc3ccc(F)c(Cl)c3)ccn12")
23
>>> measured_value("O=C1NC(=O)C(c2ccccc2)=C1Nc1cccc(O)c1")
0
>>> measured_value("CCS(=O)c1ccc(-c2coc3ccc(-c4nnc(C)o4)cc23)cc1 (centres unmarked)")
0
>>> measured_value("COc1cccc(C2=C(N(C)c3ccccc3)C(=O)NC2=O)c1")
14
>>> measured_value("Nc1ncnc2c1ncn2-c1ccc(Cl)cc1")
0

---

Tested on: MEK6
Construct: gene MAP2K6
Conditions: concentration: 1 μM, replicates: in singlicate; n = 1
measurement.name: %Inh (%)

>>> measured_value("O=C(NCCNc1ccnc(Nc2ccc(F)cc2)n1)Nc1ccc2c(c1)OCO2")
8
>>> measured_value("CCC(=O)c1c(-c2ccccc2)c2cc(Cl)ccc2c(=O)n1Cc1cc(S(C)(=O)=O)n(CC(F)F)n1")
0
>>> measured_value("O=C(Nc1ccc2c(c1)OCO2)NC1CCN(c2ccnc(NCc3ccc(F)cc3)n2)CC1")
0
>>> measured_value("COc1ccc(-n2cnc3c(N)ncnc32)cc1")
0
>>> measured_value("CCCNC(=O)Nc1ccc(Oc2ncnc3ccn(C)c23)cc1")
14
